- Test system: NCI-H23
- Assay Name: Cell viability (MTT) assay
- Format: cell-based
- Setup Conditions: Homo sapiens, NCI-H23, origin LA, Td 38 h, drug for 2-3 doubling times
pIC50: −log10 of the molar value.
Attribute Measured: pIC50

1) COc1ccc(Oc2cc(NCCC(F)(F)F)c3ncc(-c4ccc(C(=O)NC5CC5)c(C)c4)n3n2)c(F)c1F: < 6.00

----------
- Tested on: PC9-ER
- Assay Name: cells
- Setup Conditions: Homo sapiens, PC-9/ER, read-out: IC50s
pIC50: −log10 of the molar value.
Attribute Measured: pIC50

1. COc1ccc(Oc2cc(NCCC(F)(F)F)c3ncc(-c4ccc(C(=O)NC5CC5)c(C)c4)n3n2)c(F)c1F: < 5.00
